Experiment: BSK_CASM3C_Proliferation: Cell Proliferation Assessment in the BioMAP Diversity Plus: CASM3C Assay (AID 2283047);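 also: sulforhodamine B total protein stain as relative cell number at 560 nm; sub-confluent cells exposed 48 h before staining; fitted both ways against DMSO so gain or loss of cell number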
Settings: primary human coronary artery smooth muscle cells
The source made the active and inactive calls. The calls were made as follows: active = hit-call score of the fitted dose curve at least 0.9, where 1 is the maximum; inactive = score below 0.9.
Outcomes: active, inactive

>  <COMPOUND>
CC(C)CCO

>  <QUALITATIVE_LABEL>
inactive

$$$$
>  <COMPOUND>
CC[C@H]1CC[C@H](NCc2cc3c(cc2OC)[C@H]2C[C@H]2C(=O)N3C)[C@H](c2ccccc2)N1

>  <QUALITATIVE_LABEL>
active

$$$$
>  <COMPOUND>
CC[C@H](C)C(=O)O[C@H]1C[C@@H](C)C=C2C=C[C@H](C)[C@H](CC[C@@H]3C[C@@H](O)CC(=O)O3)[C@H]21

>  <QUALITATIVE_LABEL>
active

$$$$
>  <COMPOUND>
On1ccccc1=S

>  <QUALITATIVE_LABEL>
active

$$$$
>  <COMPOUND>
C=CCCCCCCCCC(=O)O

>  <QUALITATIVE_LABEL>
inactive

$$$$
>  <COMPOUND>
CC(C)c1cccc(C(C)C)c1N1C(=O)c2ccc(O)cc2C1=O

>  <QUALITATIVE_LABEL>
active

$$$$
>  <COMPOUND>
CC1=CC(=O)CC(C)(C)C1

>  <QUALITATIVE_LABEL>
inactive

$$$$
>  <COMPOUND>
CCc1cc(SCc2sc(-c3ccc(C(F)(F)F)cc3)nc2CN2CCN(c3ccc(OC)cc3)CC2)ccc1OCC(=O)O

>  <QUALITATIVE_LABEL>
active

$$$$
>  <COMPOUND>
CCCCC(CC)COC(=O)c1ccc(C(=O)OCC(CC)CCCC)cc1 (configuration not stated)

>  <QUALITATIVE_LABEL>
inactive

$$$$
>  <COMPOUND>
Cc1ccc(C)c(O)c1

>  <QUALITATIVE_LABEL>
inactive

$$$$
>  <COMPOUND>
O=C(O)c1cccc(N(Cc2cccnc2)c2ccc(OC(F)F)c(OC(F)F)c2)c1

>  <QUALITATIVE_LABEL>
active

$$$$
>  <COMPOUND>
O=C(O)CCN(C1(C(=O)NO)CCCC1)S(=O)(=O)c1ccc(Oc2ccc(F)cc2)cc1

>  <QUALITATIVE_LABEL>
inactive

$$$$

* * *

Read-out: CYP4A11 (gene 1579)
Experiment: LTEA_HepaRG_CYP4A11: Life Technologies and Expression Analysis (LTEA) Assay for CYP4A11 using HepaRG (AID 2283486)
Details: mRNA level, 48 h; actives raise or lower the signal
Active and inactive are the calls of the source. The calls were made as follows: active = hit-call score of the fitted dose curve at least 0.9, where 1 is the maximum; inactive = score below 0.9.

>  <COMPOUND>
Cn1c(=O)cc(Oc2ccc(F)cc2F)c2cnc(NCC(C)(C)O)nc21

>  <AC50>
50 µM (active)

$$$$
>  <COMPOUND>
Clc1nc(Cl)c(Cl)c(Cl)c1Cl

>  <AC50>
inactive

$$$$
>  <COMPOUND>
O=C(CCCCCCCCc1cccnc1)N1CCC(C=C(c2ccccc2)c2ccccc2)CC1

>  <AC50>
12.6 µM (active)

$$$$
>  <COMPOUND>
C=CC(=C)CCC=C(C)C

>  <AC50>
inactive

$$$$
>  <COMPOUND>
Cn1cnc([N+](=O)[O-])c1Sc1ncnc2nc[nH]c12

>  <AC50>
0.324 µM (active)

$$$$
>  <COMPOUND>
C[C@](N)(Cc1ccc(O)c(O)c1)C(=O)O

>  <AC50>
inactive

$$$$
>  <COMPOUND>
O=C1OC(=O)C2C3C=CC(C3)C12 (stereo not given)

>  <AC50>
inactive

$$$$
>  <COMPOUND>
O=C(O)CCN(C1(C(=O)NO)CCCC1)S(=O)(=O)c1ccc(Oc2ccc(F)cc2)cc1

>  <AC50>
inactive

$$$$
>  <COMPOUND>
O=C(OC[C@H]1O[C@@H](OC(=O)c2cc(O)c(O)c(OC(=O)c3cc(O)c(O)c(O)c3)c2)[C@H](OC(=O)c2cc(O)c(O)c(OC(=O)c3cc(O)c(O)c(O)c3)c2)[C@@H](OC(=O)c2cc(O)c(O)c(OC(=O)c3cc(O)c(O)c(O)c3)c2)[C@@H]1OC(=O)c1cc(O)c(O)c(OC(=O)c2cc(O)c(O)c(O)c2)c1)c1cc(O)c(O)c(OC(=O)c2cc(O)c(O)c(O)c2)c1

>  <AC50>
10.4 µM (active)

$$$$
>  <COMPOUND>
CCOC(=O)CC(CC(=O)OCC)(OC(C)=O)C(=O)OCC

>  <AC50>
inactive

$$$$

* * *

Read-out: Glutamate-cysteine ligase catalytic (GCLC), GCLC (gene 2729)
Experiment: LTEA_HepaRG_GCLC: Life Technologies and Expression Analysis (LTEA) Assay for Glutamate-cysteine ligase catalytic (GCLC) using HepaRG (AID 2283498)
Conditions: mRNA level, 48 h; actives raise or lower the signal
Active and inactive are the calls of the source. Rule for the calls: active = hit-call score of the fitted dose curve at least 0.9, where 1 is the maximum; inactive = score below 0.9.
Outcomes: yes (1) = active, no (0) = inactive

>  <MOLECULE>
CC(C)CCO

>  <QUALITATIVE_LABEL>
no (0)

$$$$
>  <MOLECULE>
O=c1[nH]c2ccc(S(=O)CCN3CCC(Cc4ccc(F)cc4)CC3)cc2o1 (configuration not stated)

>  <QUALITATIVE_LABEL>
no (0)

$$$$
>  <MOLECULE>
O=C(O)c1cccc(N(Cc2cccnc2)c2ccc(OC(F)F)c(OC(F)F)c2)c1

>  <QUALITATIVE_LABEL>
no (0)

$$$$
>  <MOLECULE>
Oc1ccc2c(c1)-c1ccccc1C2

>  <QUALITATIVE_LABEL>
no (0)

$$$$
>  <MOLECULE>
CCc1cc(SCc2sc(-c3ccc(C(F)(F)F)cc3)nc2CN2CCN(c3ccc(OC)cc3)CC2)ccc1OCC(=O)O

>  <QUALITATIVE_LABEL>
yes (1)

$$$$
>  <MOLECULE>
CCOC(=O)CC(CC(=O)OCC)(OC(C)=O)C(=O)OCC

>  <QUALITATIVE_LABEL>
no (0)

$$$$
>  <MOLECULE>
CC1=CC(=O)CC(C)(C)C1

>  <QUALITATIVE_LABEL>
no (0)

$$$$
>  <MOLECULE>
O=P(OC(CCl)CCl)(OC(CCl)CCl)OC(CCl)CCl

>  <QUALITATIVE_LABEL>
yes (1)

$$$$
>  <MOLECULE>
CC(O)CN(CCN(CC(C)O)CC(C)O)CC(C)O (configuration not stated)

>  <QUALITATIVE_LABEL>
no (0)

$$$$
>  <MOLECULE>
CC(C)=CCCC(C)=CC=O

>  <QUALITATIVE_LABEL>
no (0)

$$$$
>  <MOLECULE>
O=C1OC(=O)C2C3C=CC(C3)C12 (configuration not stated)

>  <QUALITATIVE_LABEL>
no (0)

$$$$
>  <MOLECULE>
CCOC(=O)c1ccc(C2CCC(NC[C@H](O)COc3ccc(O)c(NS(C)(=O)=O)c3)CC2)cc1 (some centres not stated)

>  <QUALITATIVE_LABEL>
no (0)

$$$$

* * *

Read-out: UDP glucuronosyltransferase (UGT1A6), UGT1A6 (gene 54578)
Assay: LTEA_HepaRG_UGT1A6: Life Technologies and Expression Analysis (LTEA) Assay for UDP glucuronosyltransferase (UGT1A6) using HepaRG (AID 2283539)
Conditions: mRNA level, 48 h; actives raise or lower the signal
Activity calls are given as the source filed them. Rule for the calls: active = hit-call score of the fitted dose curve at least 0.9, where 1 is the maximum; inactive = score below 0.9.
Possible outcomes: 1 (yes) for active, 0 (no) for inactive

>  <COMPOUND>
CC(O)CN(CCN(CC(C)O)CC(C)O)CC(C)O (stereo not drawn)

>  <QUALITATIVE_LABEL>
0 (no)

$$$$
>  <COMPOUND>
O=C(O)CC(O)C(=O)O (stereo not drawn)

>  <QUALITATIVE_LABEL>
0 (no)

$$$$
>  <COMPOUND>
O=C(OC[C@H]1O[C@@H](OC(=O)c2cc(O)c(O)c(OC(=O)c3cc(O)c(O)c(O)c3)c2)[C@H](OC(=O)c2cc(O)c(O)c(OC(=O)c3cc(O)c(O)c(O)c3)c2)[C@@H](OC(=O)c2cc(O)c(O)c(OC(=O)c3cc(O)c(O)c(O)c3)c2)[C@@H]1OC(=O)c1cc(O)c(O)c(OC(=O)c2cc(O)c(O)c(O)c2)c1)c1cc(O)c(O)c(OC(=O)c2cc(O)c(O)c(O)c2)c1

>  <QUALITATIVE_LABEL>
1 (yes)

$$$$
>  <COMPOUND>
CNCc1ccc(NC(=O)c2c[nH]c3c2C(=O)CCC3)cc1

>  <QUALITATIVE_LABEL>
0 (no)

$$$$
>  <COMPOUND>
CC(=O)OC[C@H]1O[C@@](COC(C)=O)(O[C@H]2O[C@H](COC(C)=O)[C@@H](OC(C)=O)[C@H](OC(C)=O)[C@H]2OC(C)=O)[C@@H](OC(C)=O)[C@@H]1OC(C)=O

>  <QUALITATIVE_LABEL>
0 (no)

$$$$
>  <COMPOUND>
CC1(C)C(=O)N(Br)C(=O)N1Br

>  <QUALITATIVE_LABEL>
0 (no)

$$$$
>  <COMPOUND>
CC[C@H](C)C(=O)O[C@H]1C[C@@H](C)C=C2C=C[C@H](C)[C@H](CC[C@@H]3C[C@@H](O)CC(=O)O3)[C@H]21

>  <QUALITATIVE_LABEL>
0 (no)

$$$$
>  <COMPOUND>
CCOCCO

>  <QUALITATIVE_LABEL>
0 (no)

$$$$
